- assayed.target: Histone-lysine N-methyltransferase EHMT2 (Homo sapiens) (UniProt Q96KQ7)
- Sequence (Q96KQ7 913-1193 limits assumed): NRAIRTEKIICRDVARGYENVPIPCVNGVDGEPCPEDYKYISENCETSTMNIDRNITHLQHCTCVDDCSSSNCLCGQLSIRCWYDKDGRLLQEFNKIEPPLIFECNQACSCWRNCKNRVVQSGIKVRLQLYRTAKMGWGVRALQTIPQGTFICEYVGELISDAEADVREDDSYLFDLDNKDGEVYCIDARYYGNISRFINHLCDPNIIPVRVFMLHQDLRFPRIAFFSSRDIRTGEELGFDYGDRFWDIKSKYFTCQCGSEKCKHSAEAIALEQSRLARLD
- assay.notes: qHTS Assay for Inhibitors of Histone Lysine Methyltransferase G9a; note: % is set by controls: 0 for no effect and ±100 for the full control effect; nearly all actives have a fitted effect of over 75% in size
- applied.conditions: G9a H3K9 monomethylation, AlphaScreen, 2 h; series mostly up to 59 µM
About 31,000 (8.9%) of roughly 350,000 compounds were called active. Not shown: some 15% with an inconclusive outcome. Calls come from the whole dose curve; as a rule, active = well fitted inhibition curve with a large enough effect; inconclusive = small, poorly fitted or top-dose-only effect; inactive = no such curve, though single readings can be large or run the other way. The sample as a whole holds a higher share of actives than the screen did.
Classes to choose from: yes (1) (active), no (0) (inactive)

For orientation, consider the following solved cases.
INSERT INTO measurements (compound, cat) VALUES
  ('Cn1c(=O)[nH]c(=O)c2c1nc(Br)n2CCCCSc1nc2ccccc2o1', 'no (0)'),
  ('CCN(CC)C(=O)CSc1nc2cc3c(cc2c(=O)n1CCCC(=O)NCc1ccc2c(c1)OCO2)OCO3', 'no (0)'),
  ('COc1ccc(OCCn2cc(C(=O)C3CCCCC3)c3ccccc32)cc1', 'no (0)'),
  ('Cc1ccc2c(c1)N(CC(=O)NCCc1ccc(Cl)cc1)C(=O)c1cccnc1O2', 'no (0)'),
  ('COc1ccc(NC(=O)C(=O)NCc2ccco2)cc1', 'no (0)');

Incoming: Please share the test call associated with COc1ccc(CC(NC(C)=O)C(=O)NC2CCN(C(=O)c3ccc(Cl)cc3)CC2)cc1 (stereo unspecified) .
Outgoing: no (0)

Incoming: Param item: CCN(CC(=O)Nc1ccccc1C(=O)NC1CC1)Cc1cccs1
Outgoing: no (0)
